Test system: Es-2
ASSAY_TEXT: Primary qHTS to identify gynecologic anti-cancer compounds using libraries of approved drugs and bioactive compounds (AID 1345084); also: nearly all actives have a fitted effect of over 55% in size
EXPERIMENTAL_CONDITIONS: Gynecologic cancer cell panel viability, ATPlite luminescence, 48 h; series mostly up to 57.5 µM
Records with an inconclusive call do not appear. The source made the active and inactive calls. Calls follow the shape of the dose curve; as a rule, active = well fitted cell-killing curve with a large enough effect; inconclusive = small, poorly fitted or top-dose-only effect, or effect the other way; inactive = flat fitted curve, though single readings scatter.
Outcomes: T for active, F for inactive

MOLECULE: CN1C(=O)C(Cc2c[nH]c3ccccc23)NC1=S (stereo not given)
CLASS_NAME: F

MOLECULE: NS(=O)(=O)c1ccc(Nc2nc(OCC3CCCCC3)c3[nH]cnc3n2)cc1
CLASS_NAME: F

MOLECULE: CC1CCN(c2cc(N3CCN(C)CC3)ccc2NC(=O)c2cc(C#N)c[nH]2)CC1
CLASS_NAME: F

MOLECULE: Cc1nc(C(=O)NCC(=O)O)c(O)c2ccc(Oc3ccccc3)cc12
CLASS_NAME: F

MOLECULE: N#Cc1ccc(Oc2ccc3c(c2)COB3O)cc1
CLASS_NAME: F

MOLECULE: COc1ccnc(CS(=O)c2nc3ccc(OC(F)F)cc3[nH]2)c1OC (stereo not given)
CLASS_NAME: F

MOLECULE: Cc1nc2c([nH]1)CCN(C(=O)c1ccc(NC(=O)c3ccccc3-c3ccccc3)cc1)c1ccccc1-2
CLASS_NAME: F

MOLECULE: Cc1ccc2c(c1)C(=O)[C@]1(O)CCN(c3ccccc3)C1=N2
CLASS_NAME: F

MOLECULE: O=S(=O)(O)c1ccc2cc(N=Nc3cc(S(=O)(=O)O)c4cccnc4c3O)ccc2c1
CLASS_NAME: F

MOLECULE: C[C@H](c1ccc(F)cc1CCCC(=O)O)N(c1cc(F)ccc1F)S(=O)(=O)c1ccc(Cl)cc1
CLASS_NAME: F

MOLECULE: Cc1cccc2c1CC[C@H](CN1CCC(c3c(Cl)cccc3Cl)CC1)C[C@@H]2O
CLASS_NAME: F

MOLECULE: Nc1[nH]nc2nnc(-c3c(-c4ccccc4)nn4ccccc34)cc12
CLASS_NAME: F

MOLECULE: C[C@@H]1C[C@H]2[C@@H]3CCC4=CC(=O)C=C[C@]4(C)[C@@]3(F)[C@@H](O)C[C@]2(C)[C@@]1(O)C(=O)CO
CLASS_NAME: F

MOLECULE: Cc1ccccc1C(=O)c1ccc(Nc2ccc(Br)cc2N)cc1Cl
CLASS_NAME: F

MOLECULE: CC(C)(O)CC(=O)NCCn1ccc2ncnc(Nc3ccc(Oc4cccc(C(F)(F)F)c4)c(Cl)c3)c21
CLASS_NAME: F

MOLECULE: O=C(Nc1ccc(OC(F)(F)F)cc1)c1sccc1NCc1ccnc2ccccc12
CLASS_NAME: F

MOLECULE: COc1cc(Nc2nc3ccccc3nc2NS(=O)(=O)c2ccc(NC(=O)c3ccc(C)c(OC)c3)cc2)cc(OC)c1
CLASS_NAME: F

MOLECULE: CC(C)CNc1ccnc(NCc2csc(-c3ccccc3)n2)n1
CLASS_NAME: T

MOLECULE: CCN(CCO)CCCOc1ccc2c(Nc3cc(CC(=O)Nc4cccc(F)c4)[nH]n3)ncnc2c1
CLASS_NAME: F

MOLECULE: c1ccc(CNc2nc(N3CCOc4ccccc43)nc3c2CCCC3)cc1
CLASS_NAME: F

---

ASSAY_TEXT: Quantitative High-Throughput drug screen in 47 multiple myeloma cell lines against the NCATS MIPE library collection: OCIMY1_PLB cell viability assay (AID 1918979); also: nearly all actives have a fitted effect of over 35% in size; also: potency is read from the fitted curve at half-maximal effect;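 as to viability: 100% = DMSO-only wells and 0% = cell-free media-only wells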
EXPERIMENTAL_CONDITIONS: OCI-MY1 myeloma viability, CellTiter-Glo ATP, 48 h; series mostly up to 45.8 µM
Inconclusive results are not listed. The source made the active and inactive calls. The call rests on the fitted dose curve; in most records, active means well fitted cell-killing curve with a large enough effect; inconclusive means small, poorly fitted or top-dose-only effect, or effect the other way; inactive means no such curve, though single readings can be large or run the other way.

MOLECULE: CC[C@]1(O)C[C@H]2CN(CCC3=c4ccccc4=N[C]3[C@@](C(=O)OC)(c3cc4c(cc3OC)N(C)[C@H]3[C@@](O)(C(N)=O)[C@H](O)[C@]5(CC)C=CCN6CC[C@]43[C@@H]65)C2)C1
Potency: 0.662 µM (active)
--
MOLECULE: N#CC(c1ccc(Cl)cc1)c1c(Cl)cc(-n2ncc(=O)[nH]c2=O)cc1Cl (stereo unspecified)
Potency: inactive
--
MOLECULE: CNC1[C@H](O)C(O[C@@H]2C(O)C(O[C@H]3O[C@H]([C@@H](C)NC)CC[C@H]3N)[C@@H](N)C[C@H]2N)OC[C@]1(C)O (stereo partly specified)
Potency: inactive
--
MOLECULE: CC(C)C[C@@H](N)[C@H](O)C(=O)N[C@H](C(=O)N[C@H](C(=O)N[C@@H](CC(=O)O)C(=O)O)C(C)C)C(C)C
Potency: inactive
--
MOLECULE: CC[C@H]1OC(=O)[C@H](C)[C@@H](O[C@H]2C[C@@](C)(OC)[C@@H](O)[C@H](C)O2)[C@H](C)[C@@H](O[C@@H]2O[C@H](C)C[C@H](N(C)C)[C@H]2O)[C@](C)(O)C[C@H](C)C(=NOCOCCOC)[C@H](C)[C@@H](O)[C@]1(C)O
Potency: inactive
--
MOLECULE: C=CCc1cccc(C=NNC(=O)CN2CCN(Cc3ccccc3)CC2)c1O
Potency: 8.33 µM (active)
--
MOLECULE: CC1CNc2c(cccc2S(=O)(=O)N[C@@H](CCCN=C(N)N)C(=O)N2CC[C@@H](C)C[C@@H]2C(=O)O)C1 (stereo partly specified)
Potency: inactive
--
MOLECULE: CC1=C(C(=O)Nc2cc3cn[nH]c3cc2F)C(c2ccc(C(F)(F)F)cc2)CC(=O)N1 (stereo unspecified)
Potency: inactive
--
MOLECULE: O=C(Nc1ccccc1)Nc1ccc(-c2ccc(C(=O)[C@H]3CCC[C@H]3C(=O)O)cc2)cc1
Potency: inactive
--
MOLECULE: COc1ccc(-c2cc3nccn3c(Nc3ncccc3C(N)=O)n2)cc1OC
Potency: inactive
--
MOLECULE: CCCCC(F)(F)[C@@]1(O)CC[C@H]2[C@H](CC(=O)[C@@H]2CCCCCCC(=O)O)O1
Potency: inactive

---

In this section we review reported z-score values for a set of compounds.
ASSAY_TEXT: qHTS for identification of novel therapeutic agents for treatment of microphthalmiaassociated transcription factor (MiT) renal cell carcinoma (RCC) (AID 1963991);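 also: curves scaled with 100% = DMSO viability and 0% = empty wells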
EXPERIMENTAL_CONDITIONS: TFE3-RCC viability, CellTiter-Glo, 48 h; measured here: UOK145 Z-AUC; stronger effect = lower value
Results filed as inconclusive are left out.

COMPOUND: Cc1cc2nc3c(=O)[nH]c(=O)nc-3n(CC(O)C(O)C(O)CO)c2cc1C (stereo unspecified)
z-score: 0.538
--
COMPOUND: CCOC(=O)N1c2ccc(C(F)(F)F)cc2[C@@H](N(Cc2cc(C(F)(F)F)cc(C(F)(F)F)c2)C(=O)OC)C[C@H]1CC
z-score: 0.57
--
COMPOUND: Cc1cn([C@@H]2C[C@@H](O)[C@H](CO)O2)c(=O)[nH]c1=O
z-score: 0.117
--
COMPOUND: C[C@H](c1ccc(F)cc1CCCC(=O)O)N(c1cc(F)ccc1F)S(=O)(=O)c1ccc(Cl)cc1
z-score: -0.497
--
COMPOUND: CC(C)(CO)[C@@H](O)C(=O)NCCC(=O)O
z-score: -0.0311
--
COMPOUND: N#Cc1c(N(CC(=O)O)CC(=O)O)sc(C(=O)O)c1CC(=O)O
z-score: 0.00458

---

ASSAY_TEXT: Quantitative High-Throughput drug screen in 47 multiple myeloma cell lines against the NCATS MIPE library collection: OPM1_PLB cell viability assay (AID 1918989); also: nearly all actives have a fitted effect of over 40% in size
EXPERIMENTAL_CONDITIONS: CellTiter-Glo, 48 h; series mostly up to 45.8 µM
Text: PI: Beverly A. Mock Ph.D. Laboratory of Cancer Biology and Genetics, Center for Cancer Research, National Cancer Institute, National Institute of Health, Bethesda, Maryland […] 5; Detector; 425V; Luminescence; Viewlux PerkinElmer. […] 1. […] Briefly, the corresponding myeloma cell lines were screened in 1,536-well plates with 500 cells, 5-uL per well for inhibition of cell viability (assessed by measuring ATP levels with CellTiterGlo). […]
Results filed as inconclusive are left out. Activity calls are given as the source filed them. Calls come from the whole dose curve; as a rule, active = well fitted cell-killing curve with a large enough effect; inconclusive = small, poorly fitted or top-dose-only effect, or effect the other way; inactive = no such curve, though single readings can be large or run the other way.
Outcomes: active, inactive

COMPOUND: CCOC(=O)N1c2ccc(C(F)(F)F)cc2[C@@H](N(Cc2cc(C(F)(F)F)cc(C(F)(F)F)c2)C(=O)OC)C[C@H]1CC
CLASS_NAME: active

COMPOUND: CN(C)c1ccc(-c2nc3ncc(Cl)c(N4CCN(CC(=O)Nc5nccs5)CC4)c3[nH]2)cc1
CLASS_NAME: active

COMPOUND: CCOC(=O)c1c(CSc2ccccc2)n(C)c2cc(Br)c(O)c(CN(C)C)c12
CLASS_NAME: active

COMPOUND: CCNC(=O)CCCC=CC[C@@H]1[C@H](C=CC(O)CCc2ccccc2)[C@@H](O)C[C@@H]1O (stereo partly drawn)
CLASS_NAME: inactive

COMPOUND: O=C(O)c1nc(=O)[nH]c(=O)[nH]1
CLASS_NAME: inactive

COMPOUND: CN1CCC[C@H]1CCO[C@](C)(c1ccccc1)c1ccc(Cl)cc1
CLASS_NAME: active

COMPOUND: C[C@H](CCC(=O)O)[C@H]1CC[C@H]2[C@H]3[C@@H](CC[C@]12C)[C@@]1(C)CC[C@@H](O)C[C@H]1C[C@@H]3O
CLASS_NAME: inactive

COMPOUND: CC(C)N(CCCNC(=O)Nc1ccc(C(C)(C)C)cc1)C[C@H]1O[C@@H](n2cc(Br)c3c(N)ncnc32)[C@H](O)[C@H]1O
CLASS_NAME: active
